assay: log P determination by HPLC (reversed-phase C18), EEC Directive 79/831 Annex V.A8; assay type: physicochemical; conditions: reversed-phase C18 HPLC column; pH 2.3; HPLC, reversed-phase C 18, 43° C., 0.1% aqueous phosphoric acid/acetonitrile; read-out: log P (pH 2.3)
Field: chromatographic logP. Provide a value for each of the compounds that follow.
One number for each entry.

Compound	chromatographic logP
CO/N=C/C(C)OC(=O)CSc1nccc(-c2ccccn2)n1 (stereo not shown) [Example 212]	2.13

# batch: return chromatographic logP for each of the 5 compounds below
1. C=COC(=O)CSc1nccc(-c2ccccn2)n1 [Example 17]
2. CCOC(=O)CSc1nccc(-c2cc(C)ccn2)n1 [Example 102]
3. C=CCNC(=O)CSc1nccc(-c2ccccn2)n1 [Example 70]
4. CC(C)(C)OC(=O)NCCOC(=O)CSc1nccc(-c2ccccn2)n1 [Example 141]
5. CC(C)=NNC(=O)CSc1nccc(-c2ccccn2)n1 [Example 136]

2.37
2.2
1.65
2.63
0.44
